System: Clostridium difficile UNT103-1
Assay: Non-cannulated Syrian hamster C. difficile infection model, oral gavage
Format: in vivo, Golden Syrian hamsters
Details: oral gavage TID Days 2-6; vancomycin 20 mg/kg once a day
Percent Survival at Day-22 listing for selected compounds.
Report only the number, with the unit % understood.

COMPOUND | Percent Survival at Day-22 (%)
C=C1NC(=O)[C@H](Cc2c[nH]c3ccccc23)NC(=O)[C@H](NC(=O)[C@H](CCCCN)NC(=O)[C@@H](N)[C@@H](C)CC)CSC[C@@H](C(=O)N[C@H]2C(=O)N3CCC[C@H]3C(=O)NCC(=O)N[C@H](C(=O)N[C@@H](C)C(=O)N[C@@H](C)C(=O)NC(=CC)C(=O)NCC(=O)N[C@@H]3CSC[C@@H]4NC(=O)[C@H](Cc5ccc(O)cc5)NC(=O)[C@@H](CS/C=C\NC4=O)NC(=O)[C@H](CC(N)=O)NC(=O)[C@H](Cc4ccccc4)NC3=O)CS[C@H]2C)NC(=O)[C@H](CC(C)C)NC1=O [F1I R13A] | 50

### Prompt Percent Survival at Day-22 for C=C1NC(=O)[C@H](Cc2c[nH]c3ccccc23)NC(=O)[C@H](NC(=O)[C@H](CCCCN)NC(=O)[C@@H](N)[C@@H](C)CC)CSC[C@@H](C(=O)N[C@H]2C(=O)N3CCC[C@H]3C(=O)NCC(=O)N[C@H](C(=O)N[C@@H](C)C(=O)N[C@@H](CC(=O)O)C(=O)NC(=CC)C(=O)NCC(=O)N[C@@H]3CSC[C@@H]4NC(=O)[C@H](Cc5ccc(O)cc5)NC(=O)[C@@H](CS/C=C\NC4=O)NC(=O)[C@H](CC(N)=O)NC(=O)[C@H](Cc4ccccc4)NC3=O)CS[C@H]2C)NC(=O)[C@H](CC(C)C)NC1=O [F1I R13D] ?
### Response 50

### Prompt Percent Survival at Day-22 for `CN[C@H](CC(C)C)C(=O)N[C@H]1C(=O)N[C@@H](CC(N)=O)C(=O)N[C@H]2C(=O)N[C@H]3C(=O)N[C@H](C(=O)N[C@H](C(=O)O)c4cc(O)cc(O)c4-c4cc3ccc4O)[C@H](O)c3ccc(c(Cl)c3)Oc3cc2cc(c3O[C@@H]2O[C@H](CO)[C@@H](O)[C@H](O)[C@H]2O[C@H]2C[C@](C)(N)[C@H](O)[C@H](C)O2)Oc2ccc(cc2Cl)[C@H]1O` ?
### Response 83

### Prompt Percent Survival at Day-22 for C=C1NC(=O)[C@H](Cc2c[nH]c3ccccc23)NC(=O)[C@H](NC(=O)[C@H](CCCCN)NC(=O)[C@@H](N)CC(C)C)CSC[C@@H](C(=O)N[C@H]2C(=O)N3CCC[C@H]3C(=O)NCC(=O)N[C@H](C(=O)N[C@@H](C)C(=O)N[C@@H](C)C(=O)NC(=CC)C(=O)NCC(=O)N[C@@H]3CSC[C@@H]4NC(=O)[C@H](Cc5ccc(O)cc5)NC(=O)[C@@H](CS/C=C\NC4=O)NC(=O)[C@H](CC(N)=O)NC(=O)[C@H](Cc4ccccc4)NC3=O)CS[C@H]2C)NC(=O)[C@H](CC(C)C)NC1=O [F1L R13A] ?
### Response 0

### Prompt Percent Survival at Day-22 for C=C1NC(=O)[C@H](Cc2c[nH]c3ccccc23)NC(=O)[C@H](NC(=O)[C@H](CCCCN)NC(=O)[C@@H](N)CC(C)C)CSC[C@@H](C(=O)N[C@H]2C(=O)N3CCC[C@H]3C(=O)NCC(=O)N[C@H](C(=O)N[C@@H](C)C(=O)N[C@@H](CC(N)=O)C(=O)NC(=CC)C(=O)NCC(=O)N[C@@H]3CSC[C@@H]4NC(=O)[C@H](Cc5ccc(O)cc5)NC(=O)[C@@H](CS/C=C\NC4=O)NC(=O)[C@H](CC(N)=O)NC(=O)[C@H](Cc4ccccc4)NC3=O)CS[C@H]2C)NC(=O)[C@H](CC(C)C)NC1=O [F1L R13N] ?
### Response 0
